B1: glmS ribozyme (parent)
chain: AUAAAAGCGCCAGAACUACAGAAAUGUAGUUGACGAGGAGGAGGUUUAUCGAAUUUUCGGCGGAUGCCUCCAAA

variants of: B1; test: self-cleavage kobs at 10000 uM GlcN6P; higher = faster cleavage; RNA array; conditions: with glucosamine-6-phosphate
Variants at the floor of the assay were thinned out.
attributeMeasured: self-cleavage kobs at 10000 uM GlcN6P (s⁻¹)
A number alone suffices; assume s⁻¹.

# mutationLabel, self-cleavage kobs at 10000 uM GlcN6P [s⁻¹]
measured = [
    ("G29C U46A", "7.43e-05"),
    ("C11A A12G U65A C67G", "5.83e-05"),
    ("G44C", 0.000159),
    ("G66U C70U", 0.00175),
    ("U54G U57G", "3.21e-05"),
]

Problem: What self-cleavage kobs at 10000 uM GlcN6P value was documented for this variant, A14U A48C ?
Solution: 6.17e-05

Problem: Also, U31A G66A please.
Solution: 0.00767

Problem: Follow-up item: A42G A64G
Solution: 0.0194

Problem: Lookup G13C A14U
Solution: 0.00025

Problem: A12C U46C C50G G63U C67G C68U , same question.
Solution: 0.000454

Taken from the supplement of paper PMC7125110.
